Source listed as patent US20260258115A1.

- Tgt: RSV F on RSV-A2 virus (Respiratory syncytial virus (RSV-A2))
- Assay Text: cell-based or functional assay
Measured Metric: Neutralization IC50 (RSV subtype A)

{"Binder": "ADI-41246 (antibody, V domains shown) VH: EVQLLESGPGLVKPSETLSLTCIVSGGSISSYNWNWIRQPPGKGLEWIGYIYNSGSTNYNPSLKSRVTISVDTSKNQFSLKLSSVTAADTAVYYCARYFDYGSGGFDYWGQGTLVTVSS VL: ETTLTQSPGTLSLSPGERATLSCRASQSVTSTYLAWYQQKPGQAPRLLIYGASSRATGIPDRFSGSGSGTDFTLTISRLEPEDFAVYYCQQFDSSLTFGGGTKVEIK", "Measured Metric": "Neutralization IC50 (RSV subtype A)", "Result": "> 25 µg/mL"}
{"Binder": "ADI-41323 (antibody, V domains shown) VH: EVQLLESGGGVVRPGGSLRLSCAASGFTFDDYAMGWVRQAPGKGLEWVSGITWNAGSTAYAGSVKGRFTISRDNAKNSLFLQMNSLRAEDTAFYLCARHVDSSGPVARHFDYWGQGTLVTVSS VL: NFMLTQPHSVSESPGKTVTISCTRSSGSIARNYVQWYQQRPGSAPTIVIYEDNQRPSGVPDRFSGSIDSSSNSASLTISGLKTEDEADYYCQSYDPSNVVFGGGTKLTVL", "Measured Metric": "Neutralization IC50 (RSV subtype A)", "Result": "> 25 µg/mL"}
{"Binder": "ADI-41282 (antibody, V domains shown) VH: QVQLVQSGGGVVQPGRSLRLSCAASGFMFTIYSMHWVRQAPGKGLEWVAVISNDGVNKYYSDSVKGRFTISRDNSKNTLYLQMNNLRAEDTAVYYCASDIVVLVTATDYWGQGTLVTVSS VL: ETTLTQSPVTLSLSPGERATLSCRTSQSFSSPLLAWYQQKPGQAPRLLIYGASNRATGIPDRFSGSGSGTDFTLTISRLEPVDFAVYYCQQYGSSPYTFGQGTKLEIK", "Measured Metric": "Neutralization IC50 (RSV subtype A)", "Result": "> 25 µg/mL"}
